# System Name: N-Ras WT (G domain, residues 1-166) (UniProt P01111 1-166, biotinylated for BLI (site not stated))
# Test Name: BLI; GppNHp-loaded
Observable: Kd (nM)
State the answer as a number, implicitly in nM.

Form field: reported Kd of SUMO-R11.1.6 fusion protein (designed binder) ATVKFTHQGEEKQVDISKIKWVIRWGQYIWFKYDEDGGAKGWGYVSEKDAPKELLQMLKKR
7
